Biological target: native NMDA receptors
Assay: Analysis of voltage dependence of NMDA receptor block (Woodhull model with voltage-independent component, Equation (2))
Type: cell-based, rat
Settings: fit with consensus zδ; read-out: binding constant for the deep site (Kvd)
pKd: −log10 of the molar value.
In this section we review reported pKd values for a set of compounds.

N=C(N)c1ccc(-c2cc3ccc(C(=N)N)cc3[nH]2)cc1 :: < 3.00

Switching to the query record.
Retrieve pKd measured for "N=C(N)c1ccc(/N=N/Nc2ccc(C(=N)N)cc2)cc1" and print it.
< 3.00

---

Molecular target: native NMDA receptors
Test: Analysis of voltage dependence of NMDA receptor block (Woodhull model with voltage-independent component, Equation (2))
Assay type: cell-based, rat
Details: Equation (2) fit, zδ free; reanalysis of the authors' earlier voltage dependence data [16],[17]; read-out: Kvi
Param label: returns rule met when Kd < 3 µM, returns rule not met otherwise, including exact equality.

Before answering, review these 4 worked examples.
N=C(N)c1ccc(OCCCCCOc2ccc(C(=N)N)cc2)cc1 [Pentamidine] :: rule not met
N=C(N)c1ccc(/N=N/Nc2ccc(C(=N)N)cc2)cc1 [Diminazene] :: rule not met
CCOC(=O)c1ccc(OC(=O)CCCCCNC(=N)N)cc1 [Gabexate] :: rule not met
N=C(N)c1ccc2cc(OC(=O)c3ccc(N=C(N)N)cc3)ccc2c1 [Nafamostat] :: rule met

Shift focus to the following entry.
Check if Kd falls below 3 µM for N=C(N)c1ccc(-c2ccc(-c3ccc(C(=N)N)cc3)o2)cc1 [Furamidine] .
rule not met
